- tgt: human mGlu5a receptor (Homo sapiens, UniProt P41594)
- Sequence (P41594 21-1180 isoform P41594-2 limits assumed): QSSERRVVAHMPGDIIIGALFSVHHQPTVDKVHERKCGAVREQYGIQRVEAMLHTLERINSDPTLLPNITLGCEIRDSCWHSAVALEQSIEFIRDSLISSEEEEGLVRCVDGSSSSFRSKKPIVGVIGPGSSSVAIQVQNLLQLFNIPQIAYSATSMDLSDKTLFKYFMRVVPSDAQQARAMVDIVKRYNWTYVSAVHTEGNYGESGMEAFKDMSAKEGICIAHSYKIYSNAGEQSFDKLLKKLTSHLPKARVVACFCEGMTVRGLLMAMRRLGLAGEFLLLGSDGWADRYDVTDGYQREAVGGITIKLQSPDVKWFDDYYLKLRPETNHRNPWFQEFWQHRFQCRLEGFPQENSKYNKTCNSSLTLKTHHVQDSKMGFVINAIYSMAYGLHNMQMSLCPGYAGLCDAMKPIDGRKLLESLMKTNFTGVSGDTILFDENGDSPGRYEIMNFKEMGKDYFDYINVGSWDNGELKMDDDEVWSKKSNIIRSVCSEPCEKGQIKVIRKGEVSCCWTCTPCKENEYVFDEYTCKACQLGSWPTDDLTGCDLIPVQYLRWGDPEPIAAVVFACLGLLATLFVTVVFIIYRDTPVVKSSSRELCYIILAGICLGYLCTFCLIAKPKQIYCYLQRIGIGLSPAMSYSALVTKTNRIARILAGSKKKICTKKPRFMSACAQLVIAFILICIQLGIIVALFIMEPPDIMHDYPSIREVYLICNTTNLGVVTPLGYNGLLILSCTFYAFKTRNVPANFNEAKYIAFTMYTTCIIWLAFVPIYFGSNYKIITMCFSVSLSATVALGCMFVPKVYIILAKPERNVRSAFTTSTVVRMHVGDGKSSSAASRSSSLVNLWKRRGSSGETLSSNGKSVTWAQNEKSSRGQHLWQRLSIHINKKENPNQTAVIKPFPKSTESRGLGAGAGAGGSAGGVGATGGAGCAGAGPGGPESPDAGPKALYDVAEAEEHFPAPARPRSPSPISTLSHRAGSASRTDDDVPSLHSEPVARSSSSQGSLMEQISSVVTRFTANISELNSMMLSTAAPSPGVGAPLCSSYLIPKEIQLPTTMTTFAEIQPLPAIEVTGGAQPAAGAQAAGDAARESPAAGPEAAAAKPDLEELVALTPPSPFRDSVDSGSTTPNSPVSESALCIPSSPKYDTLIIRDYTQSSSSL
pKi: −log10 of the molar value.
value_type: pKi

compound="CCn1ncc(-n2cc(C#Cc3cccc(Cl)c3)nc2C)cc1=O [Example 52]" value_type=pKi val=7.43

1. CCn1ccc(-n2cc(C#Cc3cccc(Cl)c3)nc2C)cc1=O [Example 3]
2. Cc1cccc(C#Cc2nc(C)n(-c3cnn(C)c(=O)c3)c2C)c1 [Example 44]
3. Cc1nc(C#Cc2ccnc(Cl)c2)cn1-c1cc[nH]c(=O)c1 [Example 6]
## Input # rank_down: sort by pKi, max first A complete answer lists every label in the requested sequence.
## Output 1, 2, 3
(1: 7.41, 2: 7.15, 3: 6.84)

Sourced from patent US8334287B2
